- ASSAY_NOTES: Toxicity liver stage against HepG2, at 10uM
- Format: cell-based
- Design: test concentration 10 uM, cell line HepG2-A16-CD81EGFP
- EXPERIMENTAL_PARAMETERS: human, HepG2-A16-CD81EGFP cells; read-out: INHIBITION
The compounds listed here are annotated with their cytotoxicity at 10 µM.
Quick reminder: number only, in %, skip the unit.

Answered cases to consult:
COMPOUND | UNITS_LABEL | cytotoxicity at 10 µM
Fc1cnc(N2CCO[C@H]3CN(CC4CCCC4)C[C@H]32)nc1 | % | -9.39
CC(c1ccon1)N(C)C(=O)C1CCN(C2CCCCC2)CC1 (centres undefined) | % | -20.2
Cc1cc(C)n(CC2CN(Cc3nc4ccccc4s3)CCO2)n1 (centres undefined) | % | 3.93
Cc1ccoc1C(=O)NCc1ccnc(OCC(F)(F)F)c1 | % | -7.8
O=C(c1cnccn1)N1C[C@@H](c2ccccc2)[C@@]2(CCNC2=O)C1 | % | -1.59
Cc1cc(C)n(CC(=O)N2CCC(c3cc4cccnc4[nH]3)CC2)n1 | % | 16.8
CC(C)(C)c1n[nH]c(C2CN(CCNC3CCCCC3)CCO2)n1 (centres undefined) | % | 6.86
CN(C)c1ncc(I)c(C2CCCCN2C)n1 (centres undefined) | % | 1.74
CCn1nc(C)c2nc(C(C)C)nc(NC)c21 | % | 7.19
O=C(CCC1CCCO1)NS(=O)(=O)c1ccc(Cl)cc1 (centres undefined) | % | -9.36

Query: If you can, please state the reported cytotoxicity at 10 µM value of O=C(CC1CCCC1)Nc1ccc(-n2cc(Cl)cn2)nc1 .
Response: -56.3

Query: // cytotoxicity at 10 µM lookup, key: O=C(NC1CC1)N1CC[C@H]2[C@H]1CCN2c1nncs1
Response: -4.94

Query: Entry under review: CS(=O)(=O)N1CC[C@]2(C[C@@H](OCC3CCC3)CO2)C1 . Reported cytotoxicity at 10 µM?
Response: -6.66

Query: Reported cytotoxicity at 10 µM for CCn1ccnc1CN1CCCN(C(=O)c2ccnn2C)CC1 : what is it?
Response: -5.39

Query: cytotoxicity at 10 µM lookup needed for Cn1ncc(Cl)c1C(=O)N1CCC(c2nnsc2S(C)(=O)=O)CC1 , thanks.
Response: -4.7

Query: Request the reported cytotoxicity at 10 µM associated with OC1CCN(Cc2ccnc(-c3cccnc3)n2)CC1
Response: -20.7

Query: What value of measured cytotoxicity at 10 µM is listed for Cc1n[nH]cc1CNC(=O)[C@H]1CCCCN1C(=O)OC(C)(C)C ?
Response: -0.311

###

- ASSAY_NOTES: Toxicity liver stage against HepG2, at 10uM
- Assay type: cell-based
- Design: test concentration 10 uM, cell line HepG2-A16-CD81EGFP
- EXPERIMENTAL_PARAMETERS: human, HepG2-A16-CD81EGFP cells; read-out: INHIBITION
# cytotoxicity at 10 µM values compiled below
Could you give me the number in %? Just the number is fine.

MOLECULE | cytotoxicity at 10 µM / %
COCC1(C(=O)N[C@H]2CN(c3noc(C)n3)C[C@@H]2C2CC2)CCC1 | -135
O=C(Cn1cccn1)N1CCC(c2nnc(C(F)(F)F)o2)CC1 | -10.8
CC(C(=O)N1CCC(Nc2cccnn2)CC1)n1cccn1 (configuration not stated) | -9.17

Query: I have this molecule here, Cc1ccccc1C1(C(=O)NCCN(C(C)C)C(C)C)CCOCC1 , and I need its recorded cytotoxicity at 10 µM.
Response: -6.51

Query: Please give the measured cytotoxicity at 10 µM for this molecule: CCN1CCN(C(=O)NCc2cccc(-c3cnn(C)c3)c2)CC1
Response: -10

Query: Would you mind telling me what cytotoxicity at 10 µM value was observed for CCn1ncc2c1CCCC2NCc1csc(COC)n1 (configuration not stated) ?
Response: 1.17

Query: Recorded cytotoxicity at 10 µM of CCCOc1ccc(CNCCn2cccn2)cc1 , please.
Response: 9.66

Query: What cytotoxicity at 10 µM value was documented for this molecule, CC(c1cccnc1)N(C)S(C)(=O)=O (configuration not stated) ?
Response: -5.21

###

- ASSAY_NOTES: Toxicity liver stage against HepG2, at 10uM
- Assay type: cell-based
- Design: test concentration 10 uM, cell line HepG2-A16-CD81EGFP
- EXPERIMENTAL_PARAMETERS: human, HepG2-A16-CD81EGFP cells; read-out: INHIBITION
REPORTED_ENDPOINT: cytotoxicity at 10 µM (%)
# value in %; strip the unit string

COMPOUND | UNITS_LABEL | cytotoxicity at 10 µM
CN(CCO)Cc1nnc(C2CCN(C(=O)c3ccccc3)CC2)n1C | % | 1.93

Query: Would you mind telling me what cytotoxicity at 10 µM value was observed for O=C(CCc1ccccn1)N1CCCC(n2cncn2)C1 (configuration not stated) ?
Response: -15.5

Query: Look up cytotoxicity at 10 µM for this compound: Cc1cnc(C(NC(=O)NCc2nc(C3CC3)no2)C2CC2)s1 (configuration not stated)
Response: 4.34

Query: Which cytotoxicity at 10 µM is listed for CCS(=O)(=O)N1CCOCC2(CCN(c3ccccn3)C2)C1 (configuration not stated) ?
Response: 5.66

Query: Fill blank: measured cytotoxicity at 10 µM of the compound Cc1nc2sccn2c1CNc1ccc(C(=O)O)cc1 is ____.
Response: 11.7

Query: Any idea what its cytotoxicity at 10 µM is? The compound is NCC1Cc2cccc(-c3ccc(O)c(F)c3)c2O1 (configuration not stated)
Response: -40.2

Query: State the recorded cytotoxicity at 10 µM for this entry: CCOc1cncc(N2CCN(c3ccccc3O)CC2)n1
Response: 25.7

Query: What value of cytotoxicity at 10 µM has been reported for the following compound? CN(C)Cc1ccnc(C2CCCN2Cc2cc[nH]n2)n1 (configuration not stated)
Response: -0.902

Query: Quick check: cytotoxicity at 10 µM of CN(Cc1ccco1)Cc1ccccc1CNC(=O)c1csnn1 ?
Response: 7.88

Query: Dear colleague, I am looking for the recorded cytotoxicity at 10 µM of the following compound: COCCOc1ccc(C(=O)N2CCCC(n3cncn3)C2)cn1 (configuration not stated)
Response: -11.7

Query: Find the recorded cytotoxicity at 10 µM belonging to CCc1nc(C2CCCN(C(=O)c3ccc4c(c3)nnn4C)C2)no1 (configuration not stated) and report it.
Response: -3.3

Query: Could you share which cytotoxicity at 10 µM value was measured for CCN(C)Cc1n[nH]c(=O)n1-c1ccc(C)c(C)c1 ?
Response: 6.27

###

- ASSAY_NOTES: Toxicity liver stage against HepG2, at 10uM
- Assay type: cell-based
- Design: test concentration 10 uM, cell line HepG2-A16-CD81EGFP
- EXPERIMENTAL_PARAMETERS: human, HepG2-A16-CD81EGFP cells; read-out: INHIBITION
REPORTED_ENDPOINT: cytotoxicity at 10 µM (%)
All answers are understood in %, so give the number only.

COMPOUND | RECORDED_MEASUREMENT
COc1cc(CN2CCCC2)ccc1Oc1ccc2c(c1)CC(CN)O2 (stereo unspecified) | -7.79
Cc1cc(C)c(CNC(=O)NCc2ccc(F)c(C)c2)c(=O)[nH]1 | -12.8
COc1cc(I)c(Cl)cc1C(=O)N(C)CC(C)(C)O | 11.4
CCc1cnc(N2C[C@@H]3[C@@H](C(=O)NCC(C)C)CCS(=O)(=O)[C@@H]3C2)nc1 | -135
COCCNC(=O)Cn1c(-c2cccc(Cl)c2)nc(C)c(CCO)c1=O | -0.86
O=C1NCC2=Nc3ccccc3NC(c3ccccc3)C12 (stereo unspecified) | 1.14
CC(C)c1nccn1-c1nccnc1C1CCCN1Cc1ccccc1 (stereo unspecified) | -0.943
Cc1ccc(NC(=O)C2CCCN2C(=O)C2CC2)nc1 (stereo unspecified) | -2.15
COc1ccc(C(NC(=O)c2cccc[n+]2[O-])C2CC2)cc1 (stereo unspecified) | 7.12
c1cc(C2CCCN2Cc2nnnn2C2CC2)cs1 (stereo unspecified) | -8.86

Query: Name the recorded cytotoxicity at 10 µM for COc1cnc(N2CCC(c3ncc[nH]3)CC2)nc1 .
Response: 0.852

###

// reported cytotoxicity at 10 µM per item
- ASSAY_NOTES: Toxicity liver stage against HepG2, at 10uM
- Type: cell-based
- Parameters: test concentration 10 uM, cell line HepG2-A16-CD81EGFP
- EXPERIMENTAL_PARAMETERS: human, HepG2-A16-CD81EGFP cells; read-out: INHIBITION
Numbers only; they are read as %.

Here's what some known entries look like.
MOLECULE | RECORDED_MEASUREMENT
Cc1cc(C)n(Cc2ccc(C(=O)NCCN3CCOCC3)cc2)n1 | -14.8
Cc1nnc(CN(C)CC2CCCCC2)o1 | 15.6
COc1ccc(CN2CCCC2)cc1Oc1cccc(C#N)n1 | 7.01
Cc1noc(C(C)C)c1C(=O)NCC(c1cccc(F)c1)N(C)C (stereo unspecified) | -7.46
Cc1cnn(CC2CCCCN2CCS(C)(=O)=O)c1 (stereo unspecified) | -13.7
COc1ccc(OC)c(CNCc2ccnc(N3CCOCC3)c2)c1 | 1.27
CN1CC(c2ccccc2)CC2(CCN(Cc3ncc[nH]3)CC2)C1 (stereo unspecified) | -1.21
CNc1ncc(CN(C)c2nc(C3CCCC3)nc3c2cnn3C)cn1 | 24.1

Query: Could you tell me which cytotoxicity at 10 µM is on file for O=C([C@@H]1CN(Cc2nccs2)C[C@H]2OCC[C@H]21)N1CCOCC1 ?
Response: -105

Query: Give the measured cytotoxicity at 10 µM of O=C(NCc1nnc2n1CCC2)NCC1(c2cccc(F)c2)CC1 .
Response: -6.03

Query: For the molecule COCc1nc(C(=O)NS(=O)(=O)c2ccc(F)c(F)c2)cs1 , what cytotoxicity at 10 µM is on record?
Response: 7.97
